Test system: Staphylococcus aureus
assay_remarks: Antimicrobial activity against SCCmec type III vancomycin-intermediate Staphylococcus aureus isolate b4k6307 by agar dilution method
Format: functional
Listing of recorded MIC by entry.

## Task Query: MIC; subject: `Nc1nc(/C(=N/O)C(=O)N[C@@H]2C(=O)N3C(C(=O)O)=C(/C=C4\CCN([C@@H]5CCNC5)C4=O)CS[C@H]23)ns1`
## Result 1 µg/mL

## Task What do you have for `CC[C@H]1OC(=O)[C@H](C)[C@@H](O[C@H]2C[C@@](C)(OC)[C@@H](O)[C@H](C)O2)[C@H](C)[C@@H](O[C@@H]2O[C@H](C)C[C@H](N(C)C)[C@H]2O)[C@](C)(O)C[C@@H](C)C(=O)[C@H](C)[C@@H](O)[C@]1(C)O` ?
## Result > 256 µg/mL

## Task What do you have for `Cc1onc(-c2ccccc2)c1C(=O)N[C@@H]1C(=O)N2[C@@H]1SC(C)(C)[C@@H]2C(=O)O` ?
## Result > 64 µg/mL

## Task What do you have for `CC[C@H]1OC(=O)[C@H](C)[C@@H](O[C@H]2C[C@@](C)(OC)[C@@H](O)[C@H](C)O2)[C@H](C)[C@@H](O[C@@H]2O[C@H](C)C[C@H](N(C)C)[C@H]2O)[C@](C)(OC)C[C@@H](C)C(=O)[C@H](C)[C@@H](O)[C@]1(C)O` ?
## Result 16 µg/mL

## Task What do you have for `CC(=O)NC[C@H]1CN(c2ccc(N3CCOCC3)c(F)c2)C(=O)O1` ?
## Result 0.5 µg/mL

###

Tested on: Staphylococcus aureus
assay_remarks: Antimicrobial activity against SCCmec type III vancomycin-intermediate Staphylococcus aureus isolate b3k5923 by agar dilution method
Type: functional
Listing of recorded MIC by entry.
Respond numerically; units are µg/mL and should not be typed.

molecule	MIC (µg/mL)
CC[C@H]1OC(=O)[C@H](C)[C@@H](O[C@H]2C[C@@](C)(OC)[C@@H](O)[C@H](C)O2)[C@H](C)[C@@H](O[C@@H]2O[C@H](C)C[C@H](N(C)C)[C@H]2O)[C@](C)(OC)C[C@@H](C)C(=O)[C@H](C)[C@@H](O)[C@]1(C)O [CLARITHROMYCIN]	64
CN(C)c1cc(NC(=O)CNC(C)(C)C)c(O)c2c1C[C@H]1C[C@H]3[C@H](N(C)C)C(O)=C(C(N)=O)C(=O)[C@@]3(O)C(O)=C1C2=O [TIGECYCLINE]	0.032
C[C@H]1COc2c(N3CCN(C)CC3)c(F)cc3c(=O)c(C(=O)O)cn1c23.C[C@H]1COc2c(N3CCN(C)CC3)c(F)cc3c(=O)c(C(=O)O)cn1c23.O [LEVOFLOXACIN]	32
CO[C@H]1/C=C/O[C@@]2(C)Oc3c(C)c(O)c4c(O)c(c(/C=N/N5CCN(C)CC5)c(O)c4c3C2=O)NC(=O)/C(C)=C\C=C\[C@H](C)[C@H](O)[C@@H](C)[C@@H](O)[C@@H](C)[C@H](OC(C)=O)[C@@H]1C [RIFAMPIN]	256
Nc1nc(/C(=N/O)C(=O)N[C@@H]2C(=O)N3C(C(=O)O)=C(/C=C4\CCN([C@@H]5CCNC5)C4=O)CS[C@H]23)ns1 [CEFTOBIPROLE]	2

## Task Missing value: MIC, Staphylococcus aureus, entry CC(=O)NC[C@H]1CN(c2ccc(N3CCOCC3)c(F)c2)C(=O)O1 [LINEZOLID] . Fill in?
## Result 0.5

###

Test system: Staphylococcus aureus
assay_remarks: Antimicrobial activity against SCCmec type III vancomycin-intermediate Staphylococcus aureus isolate b4k6307 by agar dilution method
Assay type: functional
experimental_readout: MIC
I'd appreciate it if you included the unit after the number.

## Task Query: MIC; subject: `CO[C@H]1/C=C/O[C@@]2(C)Oc3c(C)c(O)c4c(O)c(c(/C=N/N5CCN(C)CC5)c(O)c4c3C2=O)NC(=O)/C(C)=C\C=C\[C@H](C)[C@H](O)[C@@H](C)[C@@H](O)[C@@H](C)[C@H](OC(C)=O)[C@@H]1C`
## Result 256 µg/mL

## Task What do you have for `C[C@H]1COc2c(N3CCN(C)CC3)c(F)cc3c(=O)c(C(=O)O)cn1c23.C[C@H]1COc2c(N3CCN(C)CC3)c(F)cc3c(=O)c(C(=O)O)cn1c23.O` ?
## Result 4 µg/mL

## Task What do you have for `CN(C)c1cc(NC(=O)CNC(C)(C)C)c(O)c2c1C[C@H]1C[C@H]3[C@H](N(C)C)C(O)=C(C(N)=O)C(=O)[C@@]3(O)C(O)=C1C2=O` ?
## Result 0.064 µg/mL

###

Listing of recorded Activity by entry.
Test system: Staphylococcus aureus
assay_remarks: Antimicrobial activity against vancomycin-susceptible Staphylococcus aureus assessed as growth inhibition at 0.5 times MIC
Assay type: functional
Set-up: scale not given: the % may be the effect or the level left
Respond numerically; units are % and should not be typed.

See these solved cases before continuing.
CC(=O)NC[C@H]1CN(c2ccc(N3CCOCC3)c(F)c2)C(=O)O1 31.2
CN[C@H](CC(C)C)C(=O)N[C@H]1C(=O)N[C@@H](CC(N)=O)C(=O)N[C@H]2C(=O)N[C@H]3C(=O)N[C@H](C(=O)N[C@H](C(=O)O)c4cc(O)cc(O)c4-c4cc3ccc4O)[C@H](O)c3ccc(c(Cl)c3)Oc3cc2cc(c3O[C@@H]2O[C@H](CO)[C@@H](O)[C@H](O)[C@H]2O[C@H]2C[C@](C)(N)[C@H](O)[C@H](C)O2)Oc2ccc(cc2Cl)[C@H]1O 35.8
CN(C)c1cc(NC(=O)CNC(C)(C)C)c(O)c2c1C[C@H]1C[C@H]3[C@H](N(C)C)C(O)=C(C(N)=O)C(=O)[C@@]3(O)C(O)=C1C2=O 100
CCCCCCCCCC(=O)N[C@@H](Cc1c[nH]c2ccccc12)C(=O)N[C@H](CC(N)=O)C(=O)N[C@@H](CC(=O)O)C(=O)N[C@@H]1C(=O)NCC(=O)N[C@@H](CCCN)C(=O)N[C@@H](CC(=O)O)C(=O)N[C@H](C)C(=O)N[C@@H](CC(=O)O)C(=O)NCC(=O)N[C@H](CO)C(=O)N[C@@H]([C@H](C)CC(=O)O)C(=O)N[C@@H](CC(=O)c2ccccc2N)C(=O)O[C@@H]1C 95.1

Now consider the entry below.
## Task Query: Activity; subject: `Nc1nc(/C(=N/O)C(=O)N[C@@H]2C(=O)N3C(C(=O)O)=C(/C=C4\CCN([C@@H]5CCNC5)C4=O)CS[C@H]23)ns1`
## Result 4.62

###

Tested on: Staphylococcus aureus
assay_remarks: Antimicrobial activity against heterogeneous vancomycin-intermediate Staphylococcus aureus assessed as growth inhibition at 0.25 times MIC
Type: functional
Parameters: scale not given: the % may be the effect or the level left
Listing of recorded Activity by entry.
Respond numerically; units are % and should not be typed.

## Task Query: Activity; subject: `CC(=O)NC[C@H]1CN(c2ccc(N3CCOCC3)c(F)c2)C(=O)O1`
## Result 0

## Task What do you have for `CCCCCCCCCC(=O)N[C@@H](Cc1c[nH]c2ccccc12)C(=O)N[C@H](CC(N)=O)C(=O)N[C@@H](CC(=O)O)C(=O)N[C@@H]1C(=O)NCC(=O)N[C@@H](CCCN)C(=O)N[C@@H](CC(=O)O)C(=O)N[C@H](C)C(=O)N[C@@H](CC(=O)O)C(=O)NCC(=O)N[C@H](CO)C(=O)N[C@@H]([C@H](C)CC(=O)O)C(=O)N[C@@H](CC(=O)c2ccccc2N)C(=O)O[C@@H]1C` ?
## Result 14.8

## Task What do you have for `CN(C)c1cc(NC(=O)CNC(C)(C)C)c(O)c2c1C[C@H]1C[C@H]3[C@H](N(C)C)C(O)=C(C(N)=O)C(=O)[C@@]3(O)C(O)=C1C2=O` ?
## Result 92.6

## Task What do you have for `CN[C@H](CC(C)C)C(=O)N[C@H]1C(=O)N[C@@H](CC(N)=O)C(=O)N[C@H]2C(=O)N[C@H]3C(=O)N[C@H](C(=O)N[C@H](C(=O)O)c4cc(O)cc(O)c4-c4cc3ccc4O)[C@H](O)c3ccc(c(Cl)c3)Oc3cc2cc(c3O[C@@H]2O[C@H](CO)[C@@H](O)[C@H](O)[C@H]2O[C@H]2C[C@](C)(N)[C@H](O)[C@H](C)O2)Oc2ccc(cc2Cl)[C@H]1O` ?
## Result 0

## Task What do you have for `Nc1nc(/C(=N/O)C(=O)N[C@@H]2C(=O)N3C(C(=O)O)=C(/C=C4\CCN([C@@H]5CCNC5)C4=O)CS[C@H]23)ns1` ?
## Result 0

###

Listing of recorded MIC by entry.
Test system: Staphylococcus aureus
assay_remarks: Antimicrobial activity against SCCmec type II vancomycin-intermediate Staphylococcus aureus isolate 6zjsau7 by agar dilution method
Format: functional
Respond numerically; units are µg/mL and should not be typed.

compound	measured_result
C[C@H]1COc2c(N3CCN(C)CC3)c(F)cc3c(=O)c(C(=O)O)cn1c23.C[C@H]1COc2c(N3CCN(C)CC3)c(F)cc3c(=O)c(C(=O)O)cn1c23.O [LEVOFLOXACIN]	32

Now consider the entry below.
## Task Query: MIC; subject: CN(C)c1cc(NC(=O)CNC(C)(C)C)c(O)c2c1C[C@H]1C[C@H]3[C@H](N(C)C)C(O)=C(C(N)=O)C(=O)[C@@]3(O)C(O)=C1C2=O [TIGECYCLINE]
## Result 0.25
